experiment: Inhibitory activity against thrombin induced platelet aggregation
pIC50 values by entry
The read-out pIC50 is expressed as -log10 of concentration in moles per litre.

CN[C@H](Cc1ccccc1)C(=O)N1CCC[C@H]1C(=O)N[C@H](C=O)CCCN=C(N)N
7.64

// switching to the query compound
Any idea what pIC50 was measured for CN[C@H](Cc1ccccc1)C(=O)N1CCC[C@H]1C(=O)N[C@@H](CCCN=C(N)N)C(=O)c1nc2ccccc2s1 [RWJ-50353] ? 7.64
